Attribute: abundance fitness
B1: Glucocorticoid receptor, residues 419 to 494; numbered along this chain, P04150 (parent)
chain: KLCLVCSDEASGCHYGVLTCGSCKVFFKRAVEGQHNYLCAGRNDCIIDKIRRKNCPACRYRKCLQAGMNLEARKTK

Variants of: B1
Test: abundance fitness (aPCA) (normalised: wild type 0, dead -1); higher = more abundant; growth selection in yeast, the domain comes from the species named
Conditions: Homo sapiens
quantityName: abundance fitness

1) R42I: -0.062
2) E32Q: -0.08
3) P56R: -0.076
4) N54T: -0.005
5) G67F: -0.447
6) R52G: -0.016
7) A10H: -0.235
8) G12K: -0.08
9) L2P: -0.39
10) K62D: -0.336
11) K62C: 0.007
12) V31S: 0.037
13) G67K: -0.308
14) M68G: -0.574
15) A30I: -0.071
16) C45F: -0.649
17) Y37E: -0.107
18) V25W: -0.039
19) A57D: -0.182
20) F26H: -0.513
21) C23R: -0.056
22) D44K: -0.062

Just for reference, the Human Domainome abundance scans (Beltran et al. 2025) is where these values come from.
